target: rhGAA (Homo sapiens, UniProt P10253); construct: purchased Genzyme Co, Cambridge, Mass., USA; experiment: Effect of compounds on rhGAA stability at neutral pH (residual α-glucosidase activity); type: biochemical; details: pH 7.0, 37° C., 0.1-10 mM, up to 48 hrs
Measured attribute: stabilization of rhGAA at neutral pH

INSERT INTO assay_data (compound, measured_attribute, assay_value) VALUES
  ('CC(=O)N[C@@H](CO)C(=O)O [NAS, N-acetyl serine]', 'stabilization of rhGAA at neutral pH', 'remarkable stabilization'),
  ('CC(=O)NCC(=O)O [NAG, N-acetyl glycine]', 'stabilization of rhGAA at neutral pH', 'remarkable stabilization');
